Target: T1, human MSLN-R1-his protein (human, UniProt Q13421 296-390)
T1 construct: Self-made in HEK293E cells; also called human MSLN-R1 protein; hMSLN-R1-his; not shown: His tag
T1 chain: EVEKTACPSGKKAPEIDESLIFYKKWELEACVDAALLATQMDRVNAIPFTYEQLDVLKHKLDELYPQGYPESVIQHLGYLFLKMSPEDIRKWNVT
Assay: ELISA on coated antigen, antibody 0.1 nM
READOUT KIND: OD450 (OD450)
Just the number please, in OD450, no unit attached.

Would you please look over these solved cases?
BINDER	UNITS OF MEASURE	RECORDED VALUE
S009-F3.16.1 (antibody, human IgG1, kappa, V domains shown, Human-murine chimeric antibody: murine VH/VL on human IgG1 heavy and kappa light constant regions) VH: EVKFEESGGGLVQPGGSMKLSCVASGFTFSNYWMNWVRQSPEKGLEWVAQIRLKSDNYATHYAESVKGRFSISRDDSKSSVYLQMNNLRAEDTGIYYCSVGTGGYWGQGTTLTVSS VL: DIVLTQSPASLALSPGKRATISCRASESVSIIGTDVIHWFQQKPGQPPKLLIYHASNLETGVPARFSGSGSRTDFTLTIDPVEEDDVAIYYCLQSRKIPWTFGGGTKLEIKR	OD450	0.07
S009-F3.45.21 (antibody, human IgG1, kappa, V domains shown, Human-murine chimeric antibody: murine VH/VL on human IgG1 heavy and kappa light constant regions) VH: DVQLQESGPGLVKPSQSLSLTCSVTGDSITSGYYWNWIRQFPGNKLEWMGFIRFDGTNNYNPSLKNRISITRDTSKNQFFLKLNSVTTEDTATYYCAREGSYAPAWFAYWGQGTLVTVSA VL: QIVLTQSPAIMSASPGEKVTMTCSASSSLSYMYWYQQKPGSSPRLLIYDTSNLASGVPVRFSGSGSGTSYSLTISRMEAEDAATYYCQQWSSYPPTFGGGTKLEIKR	OD450	0.05

# next binder below
Need OD450 of S009-F3.80.22 (antibody, human IgG1, kappa, V domains shown, Human-murine chimeric antibody: murine VH/VL on human IgG1 heavy and kappa light constant regions) VH: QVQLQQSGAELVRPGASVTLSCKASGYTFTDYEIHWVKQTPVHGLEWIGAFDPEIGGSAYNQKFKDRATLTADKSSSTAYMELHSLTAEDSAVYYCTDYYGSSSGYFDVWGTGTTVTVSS VL: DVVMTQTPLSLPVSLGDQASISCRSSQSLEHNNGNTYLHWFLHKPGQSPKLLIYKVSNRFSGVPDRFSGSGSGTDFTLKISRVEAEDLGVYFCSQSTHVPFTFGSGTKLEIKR , thanks. 0.06

Source listed as patent US20250250357A1.
